Value source: ChEMBL document CHEMBL1671625

system: Hepatitis C virus; assay: Antiviral activity against Hepatitis C virus genotype 1b infected in human HuH6 cells assessed as reduction in replicon RNA after 4days by RT-qPCR analysis; type: functional, organism-based, Hepacivirus hominis; settings: HuH-6, 96 h
Classify: YES when EC50 is strictly less than 1 µM; NO when EC50 is not.

molecule: [N-]=[N+]=N[C@]1(CO)O[C@@H](n2ccc(N)nc2=O)[C@H](O)[C@@H]1O [4'-AZIDOCYTIDINE]
class: NO

**Q:** A record lists C[C@@]1(O)[C@H](O)[C@@H](CO)O[C@H]1n1cnc2c(N)ncnc21 . Is its EC50 below 1 µM?
**A:** YES

**Q:** For O=C(O)CNc1ccc(-c2ccc(Cl)cc2)c(COc2ccc(-c3nc4cc(C(=O)O)ccc4n3C3CCCCC3)cc2)c1 , is the recorded EC50 below the cut-off of 1 µM?
**A:** NO

**Q:** A record lists OC[C@H]1O[C@@H](n2nnc3cc(Cl)c(Cl)cc32)[C@H](O)[C@@H]1O . Is its EC50 below 1 µM?
**A:** NO

**Q:** Is EC50 of CC(C)CCn1c(=O)c(C2=NS(=O)(=O)c3ccccc3N2)c(O)c2ccccc21 strictly below 1 µM?
**A:** NO

**Q:** EC50 strictly < 1 µM for this molecule? C[C@@]1(F)[C@H](O)[C@@H](CO)O[C@@H]1n1ccc(N)nc1=O
**A:** NO

----------
assay: Cytotoxicity against human Huh-9-13 cells after 3 days by MTT assay; assay type: cell-based
property_name: CC50 at 72 h

For every item below, please supply its CC50 at 72 h.
1. C[C@@]1(O)[C@H](O)[C@@H](CO)O[C@H]1n1ccc(N)nc1=O
2. C[C@@]1(O)[C@H](O)[C@@H](CO)O[C@H]1n1cnc2c(N)ncnc21
3. OC[C@H]1O[C@@H](n2nnc3cc(Cl)c(Cl)cc32)[C@H](O)[C@@H]1O
4. CCC[C@H](NC(=O)[C@@H]1[C@H]2CCC[C@H]2CN1C(=O)[C@@H](NC(=O)[C@@H](NC(=O)c1cnccn1)C1CCCCC1)C(C)(C)C)C(=O)C(=O)NC1CC1

**A:**
["25 µM", "21 µM", "> 100 µM", "24 µM"]
